Tested On: mouse TMEM16A mutant Q637A (Mus musculus, UniProt Q8BHY3, Q637A)
Construct: expressed in transfected cells; host or cells: HEK293T
Sequence (Q8BHY3 whole entry Q637A): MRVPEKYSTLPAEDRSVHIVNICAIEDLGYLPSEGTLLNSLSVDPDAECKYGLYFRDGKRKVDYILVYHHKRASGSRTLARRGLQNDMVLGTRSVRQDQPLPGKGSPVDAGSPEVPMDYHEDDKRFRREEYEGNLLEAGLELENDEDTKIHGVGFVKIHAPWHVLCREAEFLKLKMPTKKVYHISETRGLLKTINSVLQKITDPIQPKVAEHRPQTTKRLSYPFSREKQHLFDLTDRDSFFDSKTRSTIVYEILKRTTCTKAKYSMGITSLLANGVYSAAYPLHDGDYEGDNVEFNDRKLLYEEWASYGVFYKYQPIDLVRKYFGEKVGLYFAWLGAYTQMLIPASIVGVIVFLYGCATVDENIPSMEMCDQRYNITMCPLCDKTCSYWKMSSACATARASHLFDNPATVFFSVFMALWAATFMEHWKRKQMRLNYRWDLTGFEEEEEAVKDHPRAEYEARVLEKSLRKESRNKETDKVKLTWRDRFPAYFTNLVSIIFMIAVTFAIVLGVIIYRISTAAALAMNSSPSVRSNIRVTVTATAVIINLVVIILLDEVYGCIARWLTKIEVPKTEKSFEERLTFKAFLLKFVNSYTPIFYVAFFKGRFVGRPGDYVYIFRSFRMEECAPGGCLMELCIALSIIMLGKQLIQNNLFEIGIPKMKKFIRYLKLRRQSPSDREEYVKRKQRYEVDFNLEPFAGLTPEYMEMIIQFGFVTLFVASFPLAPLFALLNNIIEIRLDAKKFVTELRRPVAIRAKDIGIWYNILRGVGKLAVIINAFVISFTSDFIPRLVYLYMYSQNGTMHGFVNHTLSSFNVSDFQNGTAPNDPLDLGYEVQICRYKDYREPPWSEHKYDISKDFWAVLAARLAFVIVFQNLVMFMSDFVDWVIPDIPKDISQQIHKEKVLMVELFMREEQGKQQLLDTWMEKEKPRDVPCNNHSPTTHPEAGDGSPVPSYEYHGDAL
Experiment Notes: Inside-out patch recording of 1PBC block, mutant Q637A
Type: cell-based
Setup Conditions: Q637A; V 140 mV
pIC50: −log10 of the molar value.
Readout Kind: pIC50

> print(dat)
                            cpd.smiles  readout.kind  assay.result
1  N#Cc1c(C(F)(F)F)cc(O)n2c1nc1ccccc12         pIC50          5.93

* * *

Experiment Notes: Solubility of 1PBC in aqueous solution
Format: physicochemical
Readout Kind: solubility

> print(dat)
                            cpd.smiles  readout.kind  assay.result
1  N#Cc1c(C(F)(F)F)cc(O)n2c1nc1ccccc12    solubility       ~100 µM
